# Tested on: GDM-1 (Acute Myeloid Leukemia)
# METHOD DESCRIPTION: combination Emax (second highest fraction inhibited in the dose matrix, 72 h); higher = more inhibition; extreme values may be limits of the assay
READOUT NAME: combination Emax
Please give only the number in your answer, with no unit.

Tell me measured combination Emax for Cc1cc2ncnn2cc1Nc1ncc2c(n1)n(C1CCOCC1)c(=O)n2C [AZD7648] + C=CCn1c(=O)c2cnc(Nc3ccc(N4CCN(C)CC4)cc3)nc2n1-c1cccc(C(C)(C)O)n1 [AZD1775] (first compound max 10 µM, partner max 1 µM) please.
0.894

Give combination Emax for the following compound: COc1nnc2ccc(N3CCC(c4ccc(OCCN5CCN(C)C(=O)[C@H]5C)cc4)CC3)nn12 [AZD5153] + CN(CC[C@H](CSC1=CC=CC=C1)NC2=C(C=C(C=C2)S(=O)(=O)NC(=O)C3=CC=C(C=C3)N4CCC(CC4)[C@H](C5=CC=CC=C5C6=CC=C(C=C6)Cl)O)S(=O)(=O)C(F)(F)F)CCO [AZD4320] (first compound max 1 µM, 7x7, partner max 1 µM)
1

Respond only with combination Emax recorded for Cc1c2c(nn1C)CSCc1cc(n(C)n1)CSc1cc(c3ccccc3c1)OCCCc1c(C(=O)O)n(C)c3c-2c(Cl)ccc13 [AZD5991] + C[C@@H](Nc1cc(F)cc(F)c1)c1cc(C(=O)N(C)C)cc2c(=O)cc(N3CCOCC3)oc12 [AZD8186] (first compound max 1 µM, 7x7, partner max 3 µM)
0.767

Value source: the supplement of paper PMC11061612
